# measurement_description: Induction of hemolysis in human RBC assessed as hemoglobin release after 1 hr by microtiter plate reader analysis
# Format: cell-based, Erythrocyte
# condition_set: red blood cells
Where a SMILES comes first, the peptide text is derived from it. [ ]: non-standard residue; d: D form. 3Abz = Nc1cccc(C(=O)O)c1
readout_label: HC50 at 1 h

- N=C(N)NCCCC(NC(=O)c1cccc(NC(=O)C(N)Cc2c[nH]c3ccccc23)c1)C(N)=O (stereo not drawn): > 500 µg/mL
- N=C(N)NCCCC(NC(=O)c1cccc(NC(=O)C(CCCNC(=N)N)NC(=O)C(N)Cc2c[nH]c3ccccc23)c1)C(N)=O (stereo not drawn) (H-WR[3Abz]R-NH2; configuration not given here): > 500 µg/mL

We next turn to a different compound, shown below.
input: Look up HC50 at 1 h: N=C(N)NCCCC(NC(=O)C(CCCNC(=N)N)NC(=O)c1cccc(NC(=O)C(CCCNC(=N)N)NC(=O)C(N)Cc2c[nH]c3ccccc23)c1)C(N)=O (stereo not drawn) (H-WR[3Abz]RR-NH2; configuration not given here)
output: > 500 µg/mL
